# Measurement Protocol: Semi-thermodynamic solubility
# Format: physicochemical
# Experimental Conditions: PBS, aqueous buffer, thermodynamic from solid, Room Temp; Overnight; LC-MSMS; read-out: Mean Solubility
Quantity Measured: solubility

In [3]: df
Out[3]:
                                   compound  quantity_measured    result
0    CC(C)C[C@@H](CO)NCc1cc(O)c2cc(F)ccc2n1         solubility  > 100 µM
1  O=[N+]([O-])c1c(Cl)cc(O)c2c1C1C=CCC1C(c1ccc(Cl)cc1Cl)N2 (stereo not drawn)         solubility  > 100 µM

Reported solubility, compound `Cc1[nH]nc(-c2ccc(O)c(C)c2O)c1-c1nc2ccccc2s1` : ____ > 100 µM

====

# Measurement Protocol: CaCo-2 permeability (bi-directional)
# Experimental Conditions: human, Caco-2, Mean Papp B-A, Caco-2; summary sheet
Kindly supply the reported Papp B→A at 120 min, 10 μM values for the records listed here.
Numbers only, in ×10⁻⁶ cm/s.

Check out these entries, answers already filled in.
In [3]: df
Out[3]:
                                   compound  unit_string  quantitative_result
0  CC1(C)Cc2cccc(OCC(=O)Nc3nc4ccccc4s3)c2O1 [Compound E25]   ×10⁻⁶ cm/s                 4.46
1  O=[N+]([O-])c1c(Cl)cc(O)c2c1C1C=CCC1C(c1ccc(Cl)cc1)N2 (stereo not shown) [Compound 7]   ×10⁻⁶ cm/s                 10.2
2  O=C(O)c1c(Cl)cc(O)c2c1C1C=CCC1C(c1ccc(Cl)cc1)N2 (stereo not shown) [Compound 13]   ×10⁻⁶ cm/s                 2.91

With those in mind, consider the next compound.
Fill blank: measured Papp B→A at 120 min, 10 μM of the compound COc1ncc(C(C)NC2CC(C)(C)NC(C)(C)C2)cc1Cl (stereo not shown) [Compound 3.3] is ____. 38.3

====

# Measurement Protocol: Semi-thermodynamic solubility
# Assay type: physicochemical
# Experimental Conditions: PBS, aqueous buffer, thermodynamic from solid, Room Temp; Overnight; LC-MSMS; read-out: Solubility Replicate 4
Quantity Measured: solubility

Use these answered entries as a reference point.
In [3]: df
Out[3]:
                                   compound    result
0  O=[N+]([O-])c1c(Cl)cc(O)c2c1C1C=CCC1C(c1ccc(Cl)cc1Cl)N2 (stereo not drawn)  > 100 µM
1  COc1ncc(C(C)NC2CC(C)(C)NC(C)(C)C2)cc1Cl (stereo not drawn)  > 100 µM

Hello, I would appreciate it if you could give solubility for each entry below.
1. Cc1[nH]nc(-c2ccc(O)c(C)c2O)c1-c1nc2ccccc2s1
2. CC(C)C[C@@H](CO)NCc1cc(O)c2cc(F)ccc2n1
3. Oc1cc(Cl)cc2c1NC(c1ccc(Cl)cc1)C1CC=CC21 (stereo not drawn)
4. O=C(O)c1c(Cl)cc(O)c2c1C1C=CCC1C(c1ccc(Cl)cc1)N2 (stereo not drawn)

1: > 100 µM; 2: > 100 µM; 3: < 1 µM; 4: > 100 µM
